molecular target: D(2) dopamine receptor (Rattus norvegicus); assay: In vitro ability to inhibit the binding of [3H]spiperone to dopamine receptor D2 in rat striatal membranes.
Sequence (P61169 whole entry): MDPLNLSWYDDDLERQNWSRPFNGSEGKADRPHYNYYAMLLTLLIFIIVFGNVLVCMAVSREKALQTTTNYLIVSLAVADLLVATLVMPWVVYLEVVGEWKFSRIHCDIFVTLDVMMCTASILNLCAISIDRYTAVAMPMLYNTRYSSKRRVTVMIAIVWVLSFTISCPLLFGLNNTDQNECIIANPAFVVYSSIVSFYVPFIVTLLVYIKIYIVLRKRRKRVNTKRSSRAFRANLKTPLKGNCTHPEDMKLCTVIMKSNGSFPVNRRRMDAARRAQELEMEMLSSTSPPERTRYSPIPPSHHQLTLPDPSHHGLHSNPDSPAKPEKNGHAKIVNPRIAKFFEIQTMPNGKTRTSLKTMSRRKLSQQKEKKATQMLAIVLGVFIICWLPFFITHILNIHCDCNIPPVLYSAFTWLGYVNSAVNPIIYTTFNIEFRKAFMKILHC
experimental.readout: IC50 (nM)

CCN1CCC[C@H]1CNC(=O)c1c(O)ccc(O)c1OC	56

1: C=CCN1CCC[C@H]1CNC(=O)c1c(O)c(OC)cc(Br)c1OC
2: CCN1CCC[C@H]1CNC(=O)c1c(O)c(OC)cc(Cl)c1OC
3: CCc1cc(OC)c(O)c(C(=O)NC[C@@H]2CCCN2CC)c1OC
4: CCN1CCC[C@H]1CNC(=O)c1c(OC)ccc(OC)c1O
5: CCN1CCC[C@@H]1CNC(=O)c1c(O)c(OC)cc(Br)c1OC
q: Please list these in order of increasing IC50. Thank you! // format: requested-order list of labels
a: 3, 1, 2, 4, 5

A: CCN1CCC[C@H]1CNC(=O)c1c(O)c(Br)cc(O)c1OC
B: CCN1CCC[C@@H]1CNC(=O)c1c(O)c(Br)cc(OC)c1OC
q: Which record would sort first by descending IC50, A or B ? // output: label of the selected item
a: B
(B: 79 nM, A: 1.9 nM)

P: CCN1CCC[C@H]1CNC(=O)c1c(O)c(Cl)cc(OC)c1OC
Q: CCc1cc(OC)c(OC)c(C(=O)NC[C@@H]2CCCN2CC)c1O
R: CCc1cc(OC)c(OC)c(C(=O)NC[C@@H]2CCCN2CC)c1OC
q: Ordering criterion: IC50; begin with the maximum. // format: requested-order list of labels
a: R, P, Q
(R: 820 nM, P: 1.7 nM, Q: 0.77 nM)
